Tested on: RSV
Assay: RSV inhibition in HEp-2 cells using Viral ToxGlo assay (cytopathic effect)
Assay type: cell-based, RSV A2
Details: human respiratory syncytial virus, HEp-2, 72 h
Protocol: Protocol for Screening Antiviral Compounds for RSV Inhibition and Cytotoxicity Using Viral ToxGlo Assay […] Cell plates were further incubated inside a humid chamber for 72 h p.i at 37° C./5% CO2. […] Plates were incubated at room temperature, protected from light on a plate rocker for 20 minutes before measuring the luminescence on a spectrophotometer (Biotek Synergy HTX). […]
Recorded pEC50 for the following compounds
pEC50 is a log-scale quantity: -log10 of the concentration expressed in molar.

>  <Chem smiles>
O=C(Nc1ccccc1)c1ccc(Nc2cccc(OCCCC3CCCCC3)c2)c(C2CC2)c1

>  <Target desc>
RSV

>  <Value type>
pEC50

>  <Assay value>
6.64

$$$$

// switching to the query compound
[in] Request the reported pEC50 associated with O=C(NCCC1CCCCC1)c1cccc(Nc2ccc(C(=O)Nc3ccccn3)cc2)c1
[out] 5.93
